System: cGMP-stimulatable PDE II
Experiment: Inhibition of the phosphodiesterases in vitro: PDE II
Assay type: biochemical
Details: PDE II from porcine or bovine myocardium; 3H-cAMP substrate 10^-6 mol/l with 10^-6 mol/l cGMP; pH 7.5, 30 minutes
Protocol: The cGMP-stimulatable PDE II, the cGMP-inhibitable PDE III and the cAMP-specific PDE IV were isolated from either porcine or bovine myocardium. The Ca-calmodulin-stimulatable PDE I was isolated from the porcine aorta or porcine brain. […] The enzyme activity is determined in a test batch of 100 μl in 20 mM Tris/HCl buffer of pH 7.5 which comprises 5 mM MgCl2, 0.1 mg/ml of bovine serum albumin and either 800 Bq of ^3 HcAMP or ^3 HcGMP. […]
MEASURED_METRIC: IC50 (nM)
Write the answer as a number in nM, unit excluded.

Below, each entry is followed by its recorded IC50 result.
CC(CCCc1ccccc1)n1cnc2c(=O)[nH]c(-c3ccc(-c4ccccc4)cc3)nc21 (centres unmarked)    400
CC(CCCc1ccccc1)n1cnc2c(=O)[nH]c(C3CC3)nc21 (centres unmarked)    600
CC(O)C(CCCc1ccccc1)n1cnc2c(=O)[nH]c(C3CCCCC3)nc21 (centres unmarked)    2000
CC(CCCc1ccccc1)n1cnc2c(=O)[nH]c(-c3ccc4c(c3)OCO4)nc21 (centres unmarked)    100

Now look at this entry.
Look up IC50 for this compound: CCCCCCC(C(C)O)n1cnc2c(=O)[nH]c(-c3ccc(Cl)cc3)nc21 (centres unmarked)
3000

Entry source: patent US5861404A
